Data credit: ChEMBL document CHEMBL3507680

Items are presented alongside their recorded cytotoxicity at 70.5 h.
assay method text: Human HepG2 cell viability assay in 384 well format
Format: toxicity, cell-based
Design: dose 125 nL, time 70.5 hour; concentration not given beside the values
conditions: HepG2 cells, read-out: Inhibition
Give your result in % as a bare value.

These recorded examples may help you get a feel for the data.
O=C(NC1CCC1)C1CCC2(CN(C(=O)c3ccno3)C2)O1 (stereo unspecified) : -14
CS(=O)(=O)N1C[C@H](NC(=O)c2ccno2)[C@@H]2OCCC[C@@H]21 : -7.45

The reported value for O=C(c1cccs1)N1CCC(O)(CN2CCc3ccccc3C2)C1 (stereo unspecified) in terms of cytotoxicity at 70.5 h is -2.95

The reported value for Cc1nn(C)c2c(=O)n(Cc3ccc(F)cc3)nnc12 in terms of cytotoxicity at 70.5 h is -7.56

The reported value for COc1c(C2CCCN2C(=O)c2ccnc(C)n2)c(C)nn1C (stereo unspecified) in terms of cytotoxicity at 70.5 h is -12.9

The reported value for Cc1ccc(N2CCC(C(O)c3cccs3)CC2)nn1 (stereo unspecified) in terms of cytotoxicity at 70.5 h is -4.12
